# Read-out: Forkhead box O3 (FOXO3), FOXO3 (gene 2309)
# assay_remarks: LTEA_HepaRG_FOXO3: Life Technologies and Expression Analysis (LTEA) Assay for Forkhead box O3 (FOXO3) using HepaRG (AID 2283459)
# condition_summary: mRNA level, 48 h; actives raise or lower the signal
The source made the active and inactive calls. How the source made its calls: active means hit-call score of the fitted dose curve at least 0.9, where 1 is the maximum; inactive means score below 0.9.
Labels: active, inactive

- chemical_string: "O=C(O)c1cccc(N(Cc2cccnc2)c2ccc(OC(F)F)c(OC(F)F)c2)c1"
  label: "inactive"
- chemical_string: "CCNc1ccccc1"
  label: "inactive"
- chemical_string: "CCOc1cccc(-n2cc(C(=O)N3CCN(c4cc(C(=O)O)c5ccccc5c4)CC3)nc2-c2ccc(C)cc2)c1"
  label: "active"
- chemical_string: "C1N2CN3CN1CN(C2)C3"
  label: "inactive"
- chemical_string: "CC[C@H]1OC(=O)[C@H](C)[C@@H](O[C@H]2C[C@@](C)(OC)[C@@H](O)[C@H](C)O2)[C@H](C)[C@@H](O[C@@H]2O[C@H](C)C[C@H](N(C)C)[C@H]2O)[C@](C)(O)C[C@@H](C)C(=O)[C@H](C)[C@@H](O)[C@]1(C)O"
  label: "inactive"
- chemical_string: "On1ccccc1=S"
  label: "inactive"
- chemical_string: "Cc1ccc(C)c(O)c1"
  label: "inactive"
- chemical_string: "CC(C)CCCCCCOC(=O)c1ccc(C(=O)OCCCCCCC(C)C)c(C(=O)OCCCCCCC(C)C)c1"
  label: "inactive"
- chemical_string: "CC[C@H]1CC[C@H](NCc2cc3c(cc2OC)[C@H]2C[C@H]2C(=O)N3C)[C@H](c2ccccc2)N1"
  label: "inactive"
- chemical_string: "COc1ccc2sc(C(=O)Nc3nnn[nH]3)c(OC(C)C)c2c1"
  label: "active"

* * *

# Read-out: Vascular cell adhesion molecule 1 (VCAM1), VCAM1 (gene 7412)
# assay_remarks: BSK_LPS_VCAM1: BioMAP Diversity Plus: LPS Assay for Vascular cell adhesion molecule 1 (VCAM1) Biomarker Activity (AID 2283086)
# condition_summary: primary human HUVEC with PBMC; actives raise or lower the signal
The source made the active and inactive calls. The calls were made as follows: active = hit-call score of the fitted dose curve at least 0.9, where 1 is the maximum; inactive = score below 0.9.
Outcome codes: YES (active), NO (inactive)

- chemical_string: "Clc1nc(Cl)c(Cl)c(Cl)c1Cl"
  label: "YES"
- chemical_string: "Cc1c(-c2cccnc2)c2ccccc2n1CCCCC(=O)O"
  label: "NO"
- chemical_string: "CC1(C)C(=O)N(Br)C(=O)N1Br"
  label: "NO"
- chemical_string: "O=C(OC[C@H]1O[C@@H](OC(=O)c2cc(O)c(O)c(OC(=O)c3cc(O)c(O)c(O)c3)c2)[C@H](OC(=O)c2cc(O)c(O)c(OC(=O)c3cc(O)c(O)c(O)c3)c2)[C@@H](OC(=O)c2cc(O)c(O)c(OC(=O)c3cc(O)c(O)c(O)c3)c2)[C@@H]1OC(=O)c1cc(O)c(O)c(OC(=O)c2cc(O)c(O)c(O)c2)c1)c1cc(O)c(O)c(OC(=O)c2cc(O)c(O)c(O)c2)c1"
  label: "YES"

* * *

# assay_remarks: APR_HepG2_MitoticArrest_24hr: Apredica 24-hour HepG2 Assay for Mitotic Arrest (AID 2282910)
# condition_summary: high-content imaging, actives raise or lower the signal
Calls of active or inactive are those of the source. Rule for the calls: active = hit-call score of the fitted dose curve at least 0.9, where 1 is the maximum; inactive = score below 0.9.
Outcome codes: 1 (yes) (active), 0 (no) (inactive)

- molecule: "COc1ccc2sc(C(=O)Nc3nnn[nH]3)c(OC(C)C)c2c1"
  label: "0 (no)"
- molecule: "CCOC(=O)COc1ccc2c(c1)CC(NCC(O)c1cccc(Cl)c1)CC2 (stereo not given)"
  label: "1 (yes)"
- molecule: "Cc1ccc(S(=O)(=O)O)cc1C"
  label: "0 (no)"
- molecule: "Fc1ccccc1[C@@H](F)COC1CCC(Nc2ncnc3[nH]ncc23)CC1 (stereo not given in full)"
  label: "0 (no)"
- molecule: "CCCCC(CC)COC(=O)c1ccc(C(=O)OCC(CC)CCCC)cc1 (stereo not given)"
  label: "0 (no)"
- molecule: "CCCCC(CC)COC(=O)CCCCCCCCC(=O)OCC(CC)CCCC (stereo not given)"
  label: "1 (yes)"
- molecule: "C=CC(=C)CCC=C(C)C"
  label: "0 (no)"
- molecule: "CCOCCOCCOCCO"
  label: "0 (no)"
- molecule: "COCCOCCOCCOC"
  label: "0 (no)"
- molecule: "CC(=O)c1ccc2c(c1)[C@H](NC(=O)c1ccc(F)cc1)[C@@H](O)C(C)(C)O2"
  label: "0 (no)"
- molecule: "Nc1nc2ncc(CNc3ccc(C(=O)N[C@@H](CCC(=O)O)C(=O)O)cc3)nc2c(=O)[nH]1"
  label: "0 (no)"
- molecule: "CCOC(=O)c1ccc(C2CCC(NC[C@H](O)COc3ccc(O)c(NS(C)(=O)=O)c3)CC2)cc1 (stereo not given in full)"
  label: "1 (yes)"
- molecule: "CC(C)c1cccc(C(C)C)c1N1C(=O)c2ccc(O)cc2C1=O"
  label: "1 (yes)"
- molecule: "CC(C)CCCCCCOC(=O)c1ccc(C(=O)OCCCCCCC(C)C)c(C(=O)OCCCCCCC(C)C)c1"
  label: "0 (no)"
- molecule: "Clc1nc(Cl)c(Cl)c(Cl)c1Cl"
  label: "1 (yes)"
- molecule: "Cn1c(=O)c2c(ncn2C)n(C)c1=O"
  label: "0 (no)"
- molecule: "CC1=CC(=O)CC(C)(C)C1"
  label: "0 (no)"
- molecule: "CC(=O)OCCC(C)C"
  label: "0 (no)"
- molecule: "C1N2CN3CN1CN(C2)C3"
  label: "0 (no)"
- molecule: "COC(=O)c1ccccc1O"
  label: "0 (no)"
- molecule: "Nc1cccc(N)c1"
  label: "0 (no)"
- molecule: "Cc1ccc(N)cc1O"
  label: "0 (no)"
- molecule: "Cc1ccc(O)cc1"
  label: "0 (no)"
- molecule: "O=C(O)CCN(C1(C(=O)NO)CCCC1)S(=O)(=O)c1ccc(Oc2ccc(F)cc2)cc1"
  label: "0 (no)"
- molecule: "CCOc1cccc(-n2cc(C(=O)N3CCN(c4cc(C(=O)O)c5ccccc5c4)CC3)nc2-c2ccc(C)cc2)c1"
  label: "1 (yes)"

* * *

# measured_target: Estrogen receptor beta (Homo sapiens) (UniProt Q92731)
# Sequence (Q92731 whole entry, looked up, the tested form may be a part): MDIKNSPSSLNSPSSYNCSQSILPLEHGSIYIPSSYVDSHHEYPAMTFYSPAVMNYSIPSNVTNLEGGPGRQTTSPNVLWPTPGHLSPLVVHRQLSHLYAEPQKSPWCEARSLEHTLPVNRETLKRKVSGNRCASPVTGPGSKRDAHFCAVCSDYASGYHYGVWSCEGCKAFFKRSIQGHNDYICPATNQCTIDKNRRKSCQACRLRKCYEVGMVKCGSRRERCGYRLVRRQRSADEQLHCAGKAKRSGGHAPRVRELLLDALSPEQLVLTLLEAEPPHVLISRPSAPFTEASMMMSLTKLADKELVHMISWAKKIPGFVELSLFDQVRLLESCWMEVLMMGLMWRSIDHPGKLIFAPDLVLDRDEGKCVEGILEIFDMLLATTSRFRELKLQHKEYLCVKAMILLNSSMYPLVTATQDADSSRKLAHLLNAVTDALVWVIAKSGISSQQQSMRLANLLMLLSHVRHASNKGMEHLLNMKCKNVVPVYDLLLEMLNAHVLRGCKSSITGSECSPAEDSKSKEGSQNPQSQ
# assay_remarks: OT_ER_ERbERb_1440: Odyssey Thera (OT) 24-hour HEK293T Protein-Complementation Assay for Estrogen Receptor-beta/-beta Homodimer (AID 2283380);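 further: fluorescence gain from ER beta LBD homodimer complementation read by laser scanning cytometry; scored as signal increase over DMSO baseline for both agonists and antagonists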
The source made the active and inactive calls. How the source made its calls: active means hit-call score of the fitted dose curve at least 0.9, where 1 is the maximum; inconclusive means response in the unintended direction; inactive means score below 0.9.
Classes used: active, inactive

- compound: "Cc1[nH]cnc1C[C@H]1CCc2c(C)c3ccccc3n2C1=O"
  label: "inactive"
- compound: "Nc1cccc(N)c1"
  label: "inactive"
- compound: "CCCN(C1CCN(C(=O)C2CCNCC2)CC1)[C@@H]1CCc2ccc(OC)cc2C1"
  label: "active"
- compound: "CCOCCOCCOCCO"
  label: "inactive"
- compound: "Nc1nc2ncc(CNc3ccc(C(=O)N[C@@H](CCC(=O)O)C(=O)O)cc3)nc2c(=O)[nH]1"
  label: "inactive"
- compound: "Cn1c(=O)cc(Oc2ccc(F)cc2F)c2cnc(NCC(C)(C)O)nc21"
  label: "inactive"
- compound: "CCC(C)(C)C(=O)O[C@H]1C[C@@H](C)C=C2C=C[C@H](C)[C@H](CC[C@@H]3C[C@@H](O)CC(=O)O3)[C@H]21"
  label: "inactive"
- compound: "CC(=O)OCCC(C)C"
  label: "inactive"
- compound: "COc1ccc2sc(C(=O)Nc3nnn[nH]3)c(OC(C)C)c2c1"
  label: "inactive"
- compound: "COCCOCCOCCOC"
  label: "inactive"
- compound: "O=C1OC(=O)C2C3C=CC(C3)C12 (stereo not given)"
  label: "inactive"
- compound: "O=P(OC(CCl)CCl)(OC(CCl)CCl)OC(CCl)CCl"
  label: "inactive"
- compound: "CCOCCO"
  label: "inactive"
- compound: "Oc1ccc2c(c1)-c1ccccc1C2"
  label: "active"
- compound: "CC[C@H](C)C(=O)O[C@H]1C[C@@H](C)C=C2C=C[C@H](C)[C@H](CC[C@@H]3C[C@@H](O)CC(=O)O3)[C@H]21"
  label: "inactive"
- compound: "O=C1CCC(N2C(=O)c3ccccc3C2=O)C(=O)N1 (stereo not given)"
  label: "inactive"
- compound: "O=C(O)CCN(C1(C(=O)NO)CCCC1)S(=O)(=O)c1ccc(Oc2ccc(F)cc2)cc1"
  label: "inactive"
- compound: "C1=CCCC=CCCC=CCC1"
  label: "inactive"
- compound: "CC(C)CC(C)(O)C#CC(C)(O)CC(C)C (stereo not given)"
  label: "inactive"
- compound: "COCCOc1cc2cc(C(=O)NC3CCN(C(C)C)CC3)n(CC(=O)Nc3ccc(Cl)cn3)c2cn1"
  label: "active"
- compound: "Clc1nc(Cl)c(Cl)c(Cl)c1Cl"
  label: "inactive"
- compound: "COc1ccc(/C=C/S(=O)(=O)NC(=O)c2ccc(C)cc2Cl)cc1"
  label: "inactive"
- compound: "CC(O)CN(CCN(CC(C)O)CC(C)O)CC(C)O (stereo not given)"
  label: "inactive"
- compound: "Cc1ccc(O)cc1"
  label: "inactive"
- compound: "CCCC(=O)OCC"
  label: "inactive"
